measured_on: DLG4_1, P78352
Sequence (P78352 62-152): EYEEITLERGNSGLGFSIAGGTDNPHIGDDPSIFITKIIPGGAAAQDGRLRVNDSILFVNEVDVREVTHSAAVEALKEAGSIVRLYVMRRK
assay: holdup assay
Parameters: key: below the threshold = too weak to quantify, mostly under pKd 3.1 to 4
study_conditions: plain residues with an end cap or a label only (N-terminal biotin on a linker: ado-ado)
Please provide measured pKd for the entries that follow.
Returns: the value as a bare number; no unit string appended.

Give its pKd value. Item: PSHPRLQTHV [KIRREL2, Q6UWL6]
4.06

Then this binder: ARGPPRESEV [FAM110D, Q8TAY7]
4.83
